Biological target: T1, SR
T1 construct: also called LILRB4 SR-hIgG1-Fc; stalk region of LILRB4 as Fc fusion
T1 sequence (fusion chain, as listed by the source): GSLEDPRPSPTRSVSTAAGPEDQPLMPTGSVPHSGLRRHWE
Assay: matrix of binding to LILRB4 domain-Fc fusions (FIG. 47); ELISA per paragraph 433

| binder | binding result |
| --- | --- |
| anti-LILRB4 rabbit monoclonal antibody #8 (antibody, V domains shown, also called mAb 8) VH: QSVKESGGGLVTPGGTLTLTCTASGFSLISYDMYWVRQAPGKGLEYIGIIYSDGYTFYATGAKGRITISRTSTTVDLKITSPTTEDTATYFCATNAFALWGQGTLVTISS VL: ELDLTQTPSSVSAAVGGTVTISCQSSQNVYNNNWLVWLQQKPGQPPKRLIYTASSLASGVPSRFAGSGSATQFTLTISDLECGDAATYYCAGGYSGPIYTFGGGTEVEIK | binds |
| anti-LILRB4 rabbit monoclonal antibody #216-2 (antibody, V domains shown) VH: EQSLKESGGRLVTPGTPLTLTCTVSGIDLSSYAMTWVRQVPGKGLEYIGFINIVGIAGYATWAKGRFTISKTSTTVDLKVTSPTTEDTATYFCARNWIRLDLWGQGTLVTVSS VL: ELVMTQTPASVSAAVGGTVTISCQSSESLYKKNYLSWFQQKPGQPPKLLIYEASKLASGVPSRFSGSGSGTQFTLTISDVQCDDAASYYCLGDYTNGRDTTFGGGTEVEIK | binds |
